- system: M2 type muscarinic cholinergic receptor (Rattus norvegicus)
- Sequence (P10980 whole entry): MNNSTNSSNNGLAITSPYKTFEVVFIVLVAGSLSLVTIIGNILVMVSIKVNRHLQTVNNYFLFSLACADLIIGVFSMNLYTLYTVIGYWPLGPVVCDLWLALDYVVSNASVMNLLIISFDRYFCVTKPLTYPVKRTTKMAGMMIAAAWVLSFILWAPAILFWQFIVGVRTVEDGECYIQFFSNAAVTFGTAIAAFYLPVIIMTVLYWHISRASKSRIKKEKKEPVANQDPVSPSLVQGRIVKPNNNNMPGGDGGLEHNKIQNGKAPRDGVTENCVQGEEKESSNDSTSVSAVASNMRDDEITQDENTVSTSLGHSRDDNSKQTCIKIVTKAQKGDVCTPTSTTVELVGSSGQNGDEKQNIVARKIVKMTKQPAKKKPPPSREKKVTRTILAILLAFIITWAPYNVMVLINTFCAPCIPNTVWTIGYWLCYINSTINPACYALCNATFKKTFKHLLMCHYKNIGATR
pIC50: −log10 of the molar value.

molecule: O=C1N(C2=CCCN(Cc3ccccc3)C2)CCN1c1ccc([N+](=O)[O-])cc1
system: M2 type muscarinic cholinergic receptor (Rattus norvegicus)
pIC50: < 5.22
